Tested on: M. tuberculosis H37Rv growth inhibition, 7H9 media
Experiment: M. tuberculosis growth inhibition, HTS (AID 449762);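 also: bacterial growth assessed after seven days of incubation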
Conditions: measured here: IC90 growth inhibition
Inconclusive results are not listed.
Would you mind telling me the reported log10 IC90 of each entry?
Note the log scale: values are log10 of IC90 expressed in µM.

Query: Item `Cn1nc(C(F)(F)F)c2cc(NC(=O)OCC(C)(C)C)sc21` has what recorded log10 IC90?
Response: 1.60

Query: Item `Cc1ccc(-c2nc3c(c(=O)c4ccccc4n3C)c(=O)n2Cc2ccco2)cc1` has what recorded log10 IC90?
Response: 1.56

Query: Item `CO[C@@]12[C@H](COC(N)=O)C3=C(C(=O)C(C)=C(N)C3=O)N1C[C@@H]1N[C@@H]12` has what recorded log10 IC90?
Response: 1.84

Query: Item CCOc1ccc(C2c3[nH]c4ccccc4c3C[C@H]3C(=O)N(C4CCN(Cc5ccccc5)CC4)CC(=O)N23)cc1OC (stereo partly specified) has what recorded log10 IC90?
Response: 1.47

Query: Item `CC(C)(Oc1ccc(Cl)cc1)C(=O)OCC(=O)N1CCN(c2ccccc2)CC1` has what recorded log10 IC90?
Response: 1.99

Query: Item `CCc1ccc2oc(-c3cc(N=Cc4cccc(OC)c4O)ccc3O)nc2c1` has what recorded log10 IC90?
Response: 1.84

Query: Item `CNC[C@@H](Cc1ccccc1)NC[C@@H](CC1CCCCC1)NCCCc1ccccc1` has what recorded log10 IC90?
Response: 0.98
